Recorded pIC50 values for a group of molecules are listed next.
# tested_on: Inhibitor of nuclear factor kappa-B kinase subunit beta (Homo sapiens)
# Sequence (O14920 whole entry): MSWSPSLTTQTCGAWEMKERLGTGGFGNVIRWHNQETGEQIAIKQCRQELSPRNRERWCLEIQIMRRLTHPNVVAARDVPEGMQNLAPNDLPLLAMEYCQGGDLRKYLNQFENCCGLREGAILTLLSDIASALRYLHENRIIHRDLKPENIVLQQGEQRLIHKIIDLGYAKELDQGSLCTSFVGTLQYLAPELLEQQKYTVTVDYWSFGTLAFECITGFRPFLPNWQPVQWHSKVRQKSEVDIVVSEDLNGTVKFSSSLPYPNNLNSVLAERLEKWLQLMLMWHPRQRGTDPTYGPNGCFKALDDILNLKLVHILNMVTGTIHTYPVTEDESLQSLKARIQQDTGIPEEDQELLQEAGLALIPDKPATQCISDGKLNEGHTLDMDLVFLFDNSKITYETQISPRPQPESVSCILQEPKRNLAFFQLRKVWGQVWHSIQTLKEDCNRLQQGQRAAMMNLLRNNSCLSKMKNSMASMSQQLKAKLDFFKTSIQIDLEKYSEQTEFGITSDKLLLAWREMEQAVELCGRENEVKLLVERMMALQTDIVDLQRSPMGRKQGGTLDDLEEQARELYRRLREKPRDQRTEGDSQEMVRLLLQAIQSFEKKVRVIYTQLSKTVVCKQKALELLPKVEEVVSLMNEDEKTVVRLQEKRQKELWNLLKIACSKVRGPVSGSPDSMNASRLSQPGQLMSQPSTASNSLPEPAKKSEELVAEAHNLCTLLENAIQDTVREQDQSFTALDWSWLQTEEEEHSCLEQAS
# assay_procedure: Inhibition of recombinant human full-length N-terminal GST-fused/His6-tagged IKKbeta (M1 to S756 residues) expressed in Sf9 insect cells using ERLLDDRHDSGLDSMKDEE peptide as substrate measured after 60 mins by ADP-Glo kinase assay
pIC50: −log10 of the molar value.

Known results for molecules:
molecular_string | tested_on | test_value
Cc1ccc(-c2c(N)n[nH]c2C)cc1C | Inhibitor of nuclear factor kappa-B kinase subunit beta (Homo sapiens) | < 4.00
Cc1c(N)n[nH]c1-c1ccc(Cl)c(Cl)c1 | Inhibitor of nuclear factor kappa-B kinase subunit beta (Homo sapiens) | 4.12
Cc1[nH]nc(N)c1-c1ccc(OCc2ccccc2)cc1 | Inhibitor of nuclear factor kappa-B kinase subunit beta (Homo sapiens) | < 4.00
CCNC(=O)n1nc(C)c(-c2ccc(Cl)c(Cl)c2)c1N | Inhibitor of nuclear factor kappa-B kinase subunit beta (Homo sapiens) | < 4.00
Cc1[nH]nc(N)c1-c1ccc(Br)cc1 | Inhibitor of nuclear factor kappa-B kinase subunit beta (Homo sapiens) | 4.22
CCc1nn(C(C)=O)c(N)c1-c1ccc(Cl)c(Cl)c1 | Inhibitor of nuclear factor kappa-B kinase subunit beta (Homo sapiens) | < 4.00
Cc1nn(C(=O)C2CCCC2)c(N)c1-c1ccc(Cl)c(Cl)c1 | Inhibitor of nuclear factor kappa-B kinase subunit beta (Homo sapiens) | < 4.00
Cc1nn(C(=O)c2ccncc2)c(N)c1-c1ccc(Cl)c(Cl)c1 | Inhibitor of nuclear factor kappa-B kinase subunit beta (Homo sapiens) | < 4.00
CCCC(=O)n1nc(C)c(-c2ccc(Cl)c(Cl)c2)c1N | Inhibitor of nuclear factor kappa-B kinase subunit beta (Homo sapiens) | < 4.00
Cc1nn(C(=O)C2CCC2)c(N)c1-c1ccc(Cl)c(Cl)c1 | Inhibitor of nuclear factor kappa-B kinase subunit beta (Homo sapiens) | < 4.00

## Task Entry under review: "Cc1[nH]nc(N)c1-c1ccc(Cl)c(Cl)c1" . Reported pIC50?
## Result 4.29

## Task Entry under review: "CC(=O)n1nc(C)c(-c2ccc(C)c(C)c2)c1N" . Reported pIC50?
## Result < 4.00

## Task Entry under review: "CC(=O)n1nc(C)c(-c2ccc(Cl)c(Cl)c2)c1N" . Reported pIC50?
## Result < 4.00

## Task Entry under review: "CC(=O)n1nc(N)c(-c2ccc(Cl)c(Cl)c2)c1C" . Reported pIC50?
## Result < 4.00

## Task Entry under review: "CCC(=O)n1nc(C)c(-c2ccc(Cl)c(Cl)c2)c1N" . Reported pIC50?
## Result < 4.00

## Task Entry under review: "Cc1[nH]nc(N)c1-c1ccc2ccccc2c1" . Reported pIC50?
## Result 4.37

## Task Entry under review: "Cc1nn(C(=O)C2CC2)c(N)c1-c1ccc(Cl)cc1" . Reported pIC50?
## Result < 4.00

## Task Entry under review: "Cc1nn(C(=O)OC(C)(C)C)c(N)c1-c1ccc(Cl)c(Cl)c1" . Reported pIC50?
## Result < 4.00

## Task Entry under review: "Cc1[nH]nc(N)c1-c1cc(C(F)(F)F)cc(C(F)(F)F)c1" . Reported pIC50?
## Result 4.64

## Task Entry under review: "Cc1n[nH]c(N)c1-c1ccc(Cl)cc1" . Reported pIC50?
## Result 4.42

## Task Entry under review: "Cc1nn(C(=O)C2CCCCC2)c(N)c1-c1ccc(Cl)c(Cl)c1" . Reported pIC50?
## Result < 4.00

## Task Entry under review: "Cc1nn(C(=O)c2cccnc2)c(N)c1-c1ccc(Cl)c(Cl)c1" . Reported pIC50?
## Result < 4.00

## Task Entry under review: "Cc1nn(C(=O)C2CC2)c(N)c1-c1ccc(Cl)c(Cl)c1" . Reported pIC50?
## Result < 4.00

## Task Entry under review: "CC(=O)n1nc(C)c(-c2cccc(Cl)c2)c1N" . Reported pIC50?
## Result < 4.00
